- Tested on: Plasmodium berghei
- Assay overview: Luciferase/luciferin-expressing antifolate-resistant parasites were used to infect a culture of HepG2 cells that were pre-incubated with compounds. Infected hepatocytes emit light due to the luciferase reaction. Assay results are presented as the percent inhibition of light emission compared to control. […]
- Type: functional
- Test settings: sporozoite, PBLUC_HILL_SLOPE 2.04, PBLUC_R_SQUARED 0.498, read-out: LUCIFERASE INFECTION ASSAY - IC50
Measured attribute: IC50
In your response, put the unit directly after the numeric value.

Query: Supply IC50 measured with Plasmodium berghei for `O=S(=O)(CCN1CCC(C(c2ccccc2)c2ccccc2)CC1)c1ccc(F)cc1` .
Response: 2020 nM

Values were extracted from ChEMBL document CHEMBL4483862.
